# experiment.notes: inhibitors of poly I:C-induced TLR3 signaling, primary screen, cell-based, poly I:C stimulus, luciferase, 10K MLSCN set (AID 602277)
# recorded.conditions: HEK293-TLR3 RL24 IRF3 luciferase reporter, at 10 µM, hits give high values
metric: inhibition (%)
Write down the numeric answer in % and omit the unit.

Here are 2 compounds together with their reported answers.
COc1ccc(-c2nnnn2C)cc1S(=O)(=O)NCc1ccccc1
4.79
COc1ccc(-c2nc(C)sc2CC(=O)O)cc1
28.3

(Q) Which value of inhibition has been reported for COc1ccc(NC(=O)CCS(=O)(=O)c2ccc(OC)cc2)cc1 in the records?
(A) -1.71

(Q) What about this compound? CCOc1ccc(NC(=O)CN(c2cc(C)cc(C)c2)S(=O)(=O)c2c(C)noc2C)cc1
(A) -22.3

(Q) What about this compound? COC(=O)c1c(N)sc(C(=O)N2CCOCC2)c1C
(A) -5.07

(Q) What about this compound? O=C(NCC1CCCO1)c1ccc(C(=O)NCC2CCCO2)cc1 (configuration not stated)
(A) 4.03

(Q) What about this compound? O=C(c1ccc2c(c1)[nH]c(=S)n1c3ccccc3nc21)N1CCN(c2ncccn2)CC1
(A) 19.4

(Q) What about this compound? COC(=O)CCC(=O)Nc1cccc(Br)c1
(A) 17.4

(Q) What about this compound? COCC(=O)N(Cc1cc2cc(OC)ccc2[nH]c1=O)c1ccccc1
(A) 19

(Q) What about this compound? CCC(=O)Nc1ccc2nc(SCC(=O)N3CCCC3)sc2c1
(A) -44.2

(Q) What about this compound? COc1ccc(-n2ncc3c(N4CCN(c5cccc(C)c5C)CC4)ncnc32)cc1
(A) 27.1

(Q) What about this compound? Cc1ccc(S(=O)(=O)N2CCN(CCO)CC2)cc1-c1nnc2c3ccccc3c(C)nn12
(A) 9.83

* * *

# experiment.notes: inhibitors of Sendai virus-induced IRF3 signaling, primary screen, TLR/RLR signaling modifier project, cell-based, Sendai virus stimulus, luciferase, 10K MLSCN set (AID 602276);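 also: firefly luciferase from ISG56 promoter only with Renilla not read in this screen; 0% = Sendai virus plus DMSO and 100% = medium plus DMSO without virus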
# recorded.conditions: HEK293 RL24 IRF3 luciferase reporter, at 10 µM, hits give high values
metric: inhibition (%)
Write down the numeric answer in % and omit the unit.

Here are 5 compounds together with their reported answers.
O=C(CSCc1cccs1)N1CCCC1
-30.1
O=c1oc2ccccc2c(O)c1C=NCc1ccccn1
-8.1
COc1ccc(S(=O)(=O)Nc2ccc(F)c(Cl)c2)cc1OC
12.4
CCOC(=O)CSc1nnc2n1C(C)(C)Cc1ccccc1-2
-15.4
CC1Cc2nc(SCC(=O)Nc3nccs3)n(C)c(=O)c2S1 (configuration not stated)
11.6

(Q) Which value of inhibition has been reported for O=C(NCc1ccc2c(c1)OCO2)c1cccc2c1C(=O)N(C1CCCCC1)C2 in the records?
(A) 8.65

(Q) What about this compound? CCOc1ccc(OCc2cccc(C(=O)N3CCOCC3)c2)cc1
(A) -39.6

(Q) What about this compound? CCOC(=O)N1CCC(c2cc(=O)n3[nH]cc(C(=O)OC)c3n2)CC1
(A) 16.5

(Q) What about this compound? O=C1CC(c2ccccc2)Cc2nc(N3CCc4ccccc43)ncc21 (configuration not stated)
(A) 9.74

(Q) What about this compound? Cc1ccccc1-c1nc(Cc2ccccc2)no1
(A) -43.9

(Q) What about this compound? O=C(COc1ccccc1)Nc1nc2ccccc2[nH]1
(A) -49.9

(Q) What about this compound? Cc1cc(NS(=O)(=O)c2ccc(NC(=O)Nc3ccc4c(c3)OCO4)cc2)no1
(A) -9.3
